Attribution: paper PMC10324392

# Experimental System: Max DNA-binding domain (synthetic, S-arylated) (UniProt P61244, F43C, then Cys43 S-arylated with Pd-1 to a Phe mimic)
# Sequence (P61244 22-102 F43C): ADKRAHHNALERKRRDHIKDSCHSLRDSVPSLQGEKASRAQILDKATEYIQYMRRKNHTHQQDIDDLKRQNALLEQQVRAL
# Experiment Description: BLI; EMSA: 10 mM MES, 150 mM KCl, 1 mM MgCl2, 10% glycerol, room temperature 1 h, 10% TBE gel, pH not given; BLI: 1x PBS, 0.1% BSA, 0.02% Tween-20, streptavidin sensors, temperature not given
# Condition Info: chain copies: 2; (22 bp, only one strand printed)
pKd: −log10 of the molar value.
Readout Label: pKd

- biotinylated E-box DNA probe (BLI) (dsDNA) DNA 1: CCGGCTGACACGTGGTATTAAT DNA 2: ATTAATACCACGTGTCAGCCGG: 7.83
